Run description: NCI Yeast Anticancer Drug Screen. Data for the sgs1 mgt1 strain (AID 161)
Condition notes: S. cerevisiae sgs1 mgt1 strain, at 50.0 µM, active compounds read high
The panel holds about 79,000 compounds, 15% with a hit somewhere; the sample as a whole holds those more often.
Please enter True where growth inhibition is greater than or equal to -20%, and False where it is lower.

Record excerpt, results attached:
* S=c1c2ccccc2c(=S)n2n1CC=CC2 | True
* CCOC(=O)C(Cc1ccc(OC)c(C)c1)(NC(C)=O)C(=O)OCC | True
* CCOC(=O)C1(C)OC1c1ccc([N+](=O)[O-])cc1 (configuration not stated) | True
* CCCC(=O)Nc1ccc(OC)cc1 | True

## Input Could you please find out whether CCOC(=O)/C=C(\N)c1ccccc1 has growth inhibition that meets -20% or exceeds it?
## Output True

## Input Could you please find out whether C=C1OC(C2CCCCC2)=C(C(=O)OCC)C1C (configuration not stated) has growth inhibition that meets -20% or exceeds it?
## Output False

## Input Could you please find out whether N#CC(C(=O)CCCC(=O)Nc1ccccc1[N+](=O)[O-])c1ccc(Cl)cc1Cl (configuration not stated) has growth inhibition that meets -20% or exceeds it?
## Output False
